target: human ether-à-go-go-related gene (hERG) potassium channel (human); experiment: primary screen, population patch clamp on CHO cells stably expressing hERG; higher = less effect of the substance;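 further: peak tail current of the secondary pulse compared with the same well before compound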
Out of some 310,000 compounds screened, about 14,000 (4.5%) showed an effect of 50% or more. Effects have a minus sign here. Many of the other results were omitted from the sample, so strong results are more common in it than they were.
MEASURED QUANTITY: hERG current change (%, negative = inhibition) at 10uM (%)
Number only, in %; omit the unit.

Could you tell me which hERG current change (%, negative = inhibition) at 10uM is on file for Cn1nc(C(=O)N2CCN(S(=O)(=O)c3ccccc3)CC2)c2ccccc2c1=O ? -23

Now consider Cc1ccc(NC(=O)CN(C)C(=O)c2ccc(-n3cncn3)c([N+](=O)[O-])c2)cc1 . -49.2

Repeat for the following molecule: Cn1nc(C(=O)N2CCN(S(=O)(=O)/C=C/c3ccccc3)CC2)c2ccccc2c1=O -65.1

Now try O=C(c1ccco1)N1CCN(S(=O)(=O)/C=C/c2ccccc2)CC1 . -38.3

Nc1ccc(C(=O)N2CCN(S(=O)(=O)/C=C/c3ccccc3)CC2)cc1[N+](=O)[O-] , same question. -43.9

Try the molecule CN(CC(=O)Nc1c(Cl)cccc1Cl)C(=O)c1ccc(-n2cncn2)c([N+](=O)[O-])c1 5.71

Let us now turn to CN(CC(=O)Nc1ccc(F)c(F)c1F)C(=O)c1ccc(=O)[nH]c1 0.382

// query: O=C(NCCc1ccccc1)c1ccc(Cl)c([N+](=O)[O-])c1 -27.2

Input Cc1ccc(NC(=O)CN(C)C(=O)c2ccc(Sc3nncn3C)c([N+](=O)[O-])c2)cc1 -40.3

Consider next the molecule COCCSc1ccccc1C(=O)Nc1ccncc1 in the same way. 16.4

Cool, now Cc1ccc(NC(=O)CN(C)C(=O)C(C)OC(=O)CNC(=O)c2ccc(Cl)c([N+](=O)[O-])c2)cc1 (stereo not shown) -43

Same question for CCn1cc(C(=O)N(C)c2ccc(OC)cc2OC)c2cc(OC)c(OC)cc2c1=O please. 12.4

Then O=C(c1ccc(Cl)cc1)N1CCN(S(=O)(=O)/C=C/c2ccccc2)CC1 ? -54.8

Consider next the molecule CN(CC(=O)Nc1ccc(F)c(F)c1F)C(=O)c1ccc(-n2cncn2)c([N+](=O)[O-])c1 in the same way. -40.6

Also O=C(c1cccc([N+](=O)[O-])c1)N1CCN(C/C=C/c2ccccc2)CC1 ? -65.9

How about Nc1nnc(SCC(=O)Nc2ccc(Cl)c(C(=O)O)c2)s1 ? 19.8

Input CN(CC(=O)Nc1ccc(F)c(F)c1F)C(=O)c1ccc(-n2cncn2)cc1 -63.8

Try the molecule CCN(C(=O)c1ccc(Cl)c([N+](=O)[O-])c1)c1ccccc1 -5.95

Queued: Cc1ccc(/C=C2\C(=N)N3N=C(CC(=O)N4CCOCC4)SC3=NC2=O)o1 12.2

----------
For each of the compounds below, state its hERG current change (%, negative = inhibition) at 10uM.
Molecular target: human ether-à-go-go-related gene (hERG) potassium channel (human, UniProt Q12809);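 further: peak tail current of the secondary pulse compared with the same well before compound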
Sequence (Q12809 whole entry, looked up): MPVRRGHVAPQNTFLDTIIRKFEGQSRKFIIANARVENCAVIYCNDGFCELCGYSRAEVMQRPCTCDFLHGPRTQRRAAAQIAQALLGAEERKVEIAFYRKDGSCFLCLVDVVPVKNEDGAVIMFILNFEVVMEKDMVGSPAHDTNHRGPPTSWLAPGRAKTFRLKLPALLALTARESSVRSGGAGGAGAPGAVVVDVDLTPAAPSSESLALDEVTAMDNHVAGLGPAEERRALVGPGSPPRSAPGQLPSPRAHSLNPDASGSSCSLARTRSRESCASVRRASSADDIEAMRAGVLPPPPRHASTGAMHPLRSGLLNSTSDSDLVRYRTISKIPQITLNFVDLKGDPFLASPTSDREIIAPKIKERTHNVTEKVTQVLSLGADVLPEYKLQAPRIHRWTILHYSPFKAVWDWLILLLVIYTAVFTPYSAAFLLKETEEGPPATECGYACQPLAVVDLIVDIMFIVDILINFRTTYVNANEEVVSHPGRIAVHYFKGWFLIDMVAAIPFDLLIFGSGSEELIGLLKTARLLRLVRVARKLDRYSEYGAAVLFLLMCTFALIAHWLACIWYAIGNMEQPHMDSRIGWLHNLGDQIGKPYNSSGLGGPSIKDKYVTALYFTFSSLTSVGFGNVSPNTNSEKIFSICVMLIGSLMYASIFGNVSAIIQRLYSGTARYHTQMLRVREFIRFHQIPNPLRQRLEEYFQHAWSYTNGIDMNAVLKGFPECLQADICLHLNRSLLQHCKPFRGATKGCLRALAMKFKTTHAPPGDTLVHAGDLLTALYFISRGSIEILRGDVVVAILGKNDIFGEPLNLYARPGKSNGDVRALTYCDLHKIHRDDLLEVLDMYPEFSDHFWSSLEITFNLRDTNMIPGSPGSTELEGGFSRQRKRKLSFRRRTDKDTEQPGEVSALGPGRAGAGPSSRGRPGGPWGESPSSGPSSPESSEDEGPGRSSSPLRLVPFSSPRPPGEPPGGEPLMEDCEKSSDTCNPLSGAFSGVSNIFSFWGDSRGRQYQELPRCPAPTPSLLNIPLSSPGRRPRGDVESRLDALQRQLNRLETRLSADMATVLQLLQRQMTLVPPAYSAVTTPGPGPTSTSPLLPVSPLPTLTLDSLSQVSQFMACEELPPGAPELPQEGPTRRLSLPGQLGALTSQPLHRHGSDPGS
Assay: primary screen, population patch clamp on CHO cells stably expressing hERG; higher = less effect of the substance
Method: Briefly, Chinese hamster ovary (CHO) cells stably expressing the hERG channel were dislodged from tissue culture flasks and dispensed into PPC plates. […] During the recording, background leak currents were estimated by a 100 ms step to -80 mV from an initial holding potential of -70 mV and subtracted from the subsequent current measurement. The campaign was conducted in two phases using slight differences in recording protocol. […]
In all, about 310,000 compounds went through this assay and about 14,000 (4.5%) showed an effect of 50% or more. The effect is printed as a negative number. The list comes from a sample in which strong results are over-represented; it also holds close analogues and randomly drawn compounds.
Field: numeric (%). Do not append units.

For the compound Cc1nn(C2CCOC(C)(C)C2)c2c1C(c1ccc(OC(C)C)cc1)SCC(=O)N2 (stereo not shown) , what hERG current change (%, negative = inhibition) at 10uM is on record? -15.5

And then CC(=O)Nc1ccc(N(C(=O)Cc2cccs2)C(C(=O)NC2CCCC2)c2ccncc2)cc1 (stereo not shown) , what is it? 9.17

How about CN1CCN(CCCNC(=O)Cn2ncc3c4ccccc4n(C)c3c2=O)CC1 ? 12

Would you kindly repeat that for O=C(COc1ccc(Cl)cc1)N1CCN(S(=O)(=O)c2ccccc2)CC1 ? -54.6

Quick one: COc1ccc(CCC(=O)N2CCN(S(=O)(=O)c3cccc(Cl)c3)CC2)cc1 -34.8

What about this compound? Cc1cc(Br)ccc1OCCN1CCCC1.O=C(O)C(=O)O -36.8

Then what about the compound Cc1ccc2c(=O)cc(C(=O)NCCc3ccc(S(N)(=O)=O)cc3)oc2c1 ? 9.13

Do the same for COc1cccc(CNC(=O)CN2C(=O)COc3ccc(S(=O)(=O)N4CCCCCC4)cc32)c1 please 24.8

# iterate: O=C(CN1CCN(Cc2ccc3c(c2)OCO3)CC1)c1c[nH]c2ccccc12 -63.5

O=S(=O)(c1ccc(Cl)s1)N1CCc2ccccc2C1 , same question. 7.13

What do you have for N#Cc1ccccc1NCC(=O)N1CCN(S(=O)(=O)c2ccccc2)CC1 ? -1.49

Same thing, different compound: CCS(=O)(=O)N1CCC(C(=O)N2CCOCC2)CC1 12

Moving on to the next compound: N#CCc1c(C#N)c(N)nc(N2CCN(S(=O)(=O)c3ccccc3F)CC2)c1C#N -9.75

Item: Cc1cc(Br)ccc1OCCCCN1CCCCC1.O=C(O)C(=O)O -78.9

Entry Cc1cc(Br)ccc1OCCOCCN1CCCC1.O=C(O)C(=O)O please -60.7

Try this compound too: COc1ccc(Cl)cc1NC(=O)C1CC(=O)N(c2ccc(F)cc2)C1 (stereo not shown) 4.41

Same for O=C(Cn1ncc2c(=O)oc3ccccc3c21)NCCN1CCN(c2ccccc2F)CC1 -28.4

Now give it for CCCCCN(C(=O)CCC(=O)OCc1ccc(C(C)(C)C)cc1)c1c(N)n(CCCC)c(=O)[nH]c1=O too. -8.09

Next up: Cc1cccc(C)c1OCCCCN1CCCCC1.O=C(O)C(=O)O -11.8

What about O=C(COc1ccc(Cl)cc1)N1CCN(S(=O)(=O)c2ccc(Cl)cc2)CC1 ? -11.9

Lookup O=C(C(=O)N1CCN(Cc2ccc3c(c2)OCO3)CC1)c1c[nH]c2ccccc12 -11.6

// query: CC1CCCC(C)N1CCCNC(=O)Cn1ncc2c3ccccc3n(C)c2c1=O (stereo not shown) -36.9

Same read-out for C/C(=N\OCC(=O)Nn1c(C)nc2ccccc2c1=O)c1ccccc1 ? -13.8

Now give it for O=C(COc1ccccc1)N1CCN(S(=O)(=O)c2ccc(Cl)cc2)CC1 too. -2.27

Same read-out for Nc1nc2ccc(C(=O)Nc3ccccc3)cc2s1 ? 7.6

Param item: Cc1cc(C)c2c(=O)n(CC(=O)NCCCN3CCOCC3)sc2n1 11.4

Same again, this time with O=C(NCc1ccco1)C1CCN(S(=O)(=O)Cc2ccccc2)CC1 -5.29

Input NC(=O)CN1CCN(Cc2ccc3c(c2)OCO3)CC1 30.6

Now this one: COc1ccc(C2NN=C(c3ccc(C)cc3)S2)cc1 (stereo not shown) 4.2

Now give it for CC(NC(=O)Cc1ccccc1)c1nc2ccccc2[nH]1 (stereo not shown) too. 5.94

Note, next up: O=C(Cn1cc(S(=O)(=O)N2CCN(c3ccccc3F)CC2)c2ccccc2c1=O)NCCCN1CCCCCC1 -61.1

Try COCCNC(=O)Cn1cc(S(=O)(=O)N2CCN(c3ccccc3F)CC2)c2ccccc2c1=O next. -2.76

Also need CC(=O)c1ccc(NCC(=O)N2CCN(S(=O)(=O)c3ccccc3)CC2)cc1 , thanks. -5.61

What would you report for Cc1cc(Br)ccc1OCC(=O)N1CCCCCC1 ? -12.1

Would you mind doing O=C(CN1CCN(Cc2ccccc2)CC1)c1c[nH]c2ccccc12 as well? -56.5

Try Nc1c(N(C(=O)Nc2ccc(Cl)c(Cl)c2)C2CCCC2)c(=O)[nH]c(=O)n1Cc1ccccc1 next. 24.7

N#Cc1ccc(OCC(=O)N2CCN(S(=O)(=O)c3cccc(Cl)c3)CC2)cc1 , same question. -71.4

C/C(=N/NC(N)=S)c1ccccc1[N+](=O)[O-] , same question. 7.13

And for CCCN1CCN(CCCNC(=O)Cn2ncc3c4ccccc4n(C)c3c2=O)CC1 ? -56.6

Quick one: CCn1ncc(S(=O)(=O)NCc2ccco2)c1C -0.626
